# Tested target: HLA-A*11:01 (human)
# Method description: REVEAL MHC-peptide binding assay, recombinant HLA-A*11:01
# Details: remark: other sources report otherwise
// f strictly below 50 in In Vitro Score (% of positive control peptide); t otherwise

| Binder | Label value |
| --- | --- |
| IIFWVLRGR [… (SEQ ID NO: 33)] | f |
| IIFWVKRGN [… (SEQ ID NO: 73)] | f |
| IIFWVARGR [… (SEQ ID NO: 46)] | t |
| VAFIIFWVK [… (SEQ ID NO: 16)] | t |
| IIFWVHRGR [… (SEQ ID NO: 40)] | t |
| WVKRGNKKL [… (SEQ ID NO: 76)] | f |
| IFWVKRGSK [… (SEQ ID NO: 58)] | f |
| IFWVKRGAK [… (SEQ ID NO: 70)] | t |
